Ref: PubChem BioAssay (NCATS)

assay: Confirmatory qHTS for small molecule stabilizers of the endoplasmic reticulum resident proteome: Secreted ER Calcium Modulated Protein (SERCaMP) assay (AID 1508628); details: SERCaMP secreted luciferase ER calcium/proteostasis reporter; series mostly up to 76.3 µM; note: nearly all actives have a fitted effect of over 40% in size; note: potency is the fitted concentration of half-maximal effect
Results filed as inconclusive are left out. Calls of active or inactive are those of the source. Calls come from the whole dose curve; as a rule, active = well fitted inhibition curve with a large enough effect; inconclusive = small, poorly fitted or top-dose-only effect; inactive = no such curve, though single readings can be large or run the other way.
Recorded Metric: Potency

Example results:
INSERT INTO assay_data (molecule_smiles, recorded_metric, reading) VALUES
  ('N#Cc1cccc(-c2nc(N3CCNCC3)c3ccccc3n2)c1', 'Potency', '11.2 µM (active)'),
  ('CN1CCN(c2ncc3nc(-c4cc(F)cc(F)c4)c(=O)n(-c4ccccc4)c3n2)CC1', 'Potency', 'inactive'),
  ('COc1ccc(Oc2ncc3nc(-c4cc(F)cc(F)c4)c(=O)n(CCC#N)c3n2)cc1', 'Potency', '31.6 µM (active)'),
  ('O=C(O)/C=C/C(=O)Nc1ccc(OC(F)(F)Cl)cc1', 'Potency', 'inactive');

In the following, a different compound is considered.
Q. Fill blank: measured Potency of the compound CC(C)(c1cc(Br)c(O)c(Br)c1)c1cc(Br)c(O)c(Br)c1 is ____.
A. inactive

====

assay: AP1 Signaling Pathway (AID 357); details: ME-180 AP-1-bla reporter, EGF-induced, beta-lactamase ratio, 5 h; at 7.69 µM (top of the series) unless noted;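 note: ME-180 reporter cells stimulated with EGF at its EC50 level; % is set by controls: 0 for no effect and ±100 for the full control effect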
Inconclusive results are not listed.
Decision: activity change, negative = inhibition compared against -10%; not below it gives yes (1), below it gives no (0).

Worked examples follow.
INSERT INTO results (molecule_smiles, qualitative_label) VALUES
  ('COc1ccc(-c2nc3cnc(Nc4ccccc4)nc3n(Cc3cccs3)c2=O)cc1', 'yes (1)'),
  ('Cc1noc(C)c1C(=O)N1CCC2(CCCN(C(=O)Nc3cccc(F)c3)C2)CC1', 'yes (1)'),
  ('O=c1c(-c2cccs2)nc2cnc(N3CCOCC3)nc2n1Cc1cccs1', 'yes (1)'),
  ('O=C(c1ccco1)N1CCC[C@@]2(CCN(Cc3nccs3)C2)C1', 'yes (1)'),
  ('COc1ccc(-n2c(=O)c(C)nc3cnc(Oc4ccccc4)nc32)cc1', 'yes (1)');

Q. For this compound, is measured activity change, negative = inhibition -10% or higher? COc1cccc(Cn2c(=O)c(-c3ccc(F)cc3)nc3cnc(OC)nc32)c1
A. yes (1)

Q. Form field: activity change, negative = inhibition at least -10%? Entry: CN(C)c1ccc(-c2cncnc2NCc2cccs2)cc1
A. no (0)

Q. Threshold query (activity change, negative = inhibition >= -10%) on N#CCCn1c(=O)c(-c2cc(F)cc(F)c2)nc2cnc(OCc3ccccc3)nc21
A. no (0)

====

test: Stat Signaling Pathway (AID 446); details: ME-180 (cervical carcinoma) SIE beta-lactamase reporter, IL-6 stimulated, 5 h; at 7.69 µM (top of the series) unless noted;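 note: ME-180 cervical cancer cells given 40 pM IL-6 alongside compound; SIE-controlled beta-lactamase reporter measured as 460/530 nm FRET emission ratio; % is set by controls: 0 for no effect and ±100 for the full control effect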
Results filed as inconclusive are left out. Activity calls are given as the source filed them. The call rests on the fitted dose curve; in most records, active means well fitted curve in either direction with a large enough effect (not every such curve was filed as active); inconclusive means small, poorly fitted or top-dose-only effect, or another doubt; inactive means flat fitted curve, though single readings scatter.
# maps each entry to its activity, negative = inhibition

INSERT INTO results (molecule_smiles, recorded_metric, reading) VALUES
  ('COc1ccc(-n2c(=O)c(C)nc3cnc(N4CCNCC4)nc32)cc1', 'activity, negative = inhibition', '7.09% (inactive)');

Q. Report activity, negative = inhibition for COc1cccc(Nc2ncc3nc(C)c(=O)n(C)c3n2)c1 please.
A. -12.2% (inactive)

Q. Which activity, negative = inhibition value is on record for CN(C)C(=O)c1ccc(-c2cncnc2N2CCNCC2)cc1 ?
A. 9.81% (inactive)

Q. Please look up its activity, negative = inhibition: Cc1noc(C)c1-c1ccc2ncnc(NC3CCNCC3)c2c1
A. 10.3% (inactive)

Q. Which activity, negative = inhibition is listed for CC(=O)NCCNc1nc(-c2cccnc2)nc2ccccc12 ?
A. 1.25% (inactive)

====

test: Counterscreen qHTS for small molecule stabilizers of the endoplasmic reticulum resident proteome: GLuc-NoTag assay (AID 1508627); conditions: Gaussia luciferase NoTag secretion counterscreen, luminescence, thapsigargin 100 nM for final 4 h; series mostly up to 76.4 µM; note: potency is the fitted concentration of half-maximal effect
Results filed as inconclusive are left out. Activity calls are given as the source filed them. Calls come from the whole dose curve; as a rule, active = well fitted inhibition curve with a large enough effect; inconclusive = small, poorly fitted or top-dose-only effect; inactive = no such curve, though single readings can be large or run the other way.
Recorded Metric: Potency

INSERT INTO measurements (compound, recorded_metric, reading) VALUES
  ('COCCn1c(=O)c(-c2ccc(F)cc2)nc2cnc(OCc3ccccc3)nc21', 'Potency', 'inactive'),
  ('COCCn1c(=O)c(-c2ccc(Cl)cc2)nc2cnc(OCc3ccccc3)nc21', 'Potency', 'inactive'),
  ('CCNc1ncc2nc(CCc3ccccc3)c(=O)n(-c3ccccc3)c2n1', 'Potency', 'inactive'),
  ('COCCn1c(=O)c(-c2ccccc2)nc2cnc(N3CCNCC3)nc21', 'Potency', 'inactive');

Q. I have this compound here, CN1CCN(c2nc(-c3cccc(C#N)c3)nc3ccccc23)CC1 , and I need its recorded Potency.
A. inactive

Q. What measured Potency goes with O=C(Nc1ncccn1)c1ccc([N+](=O)[O-])o1 ?
A. inactive

Q. Please look up its Potency: COc1ccc(-n2c(=O)cnc3cnc(N4CCNCC4)nc32)cc1
A. inactive

Q. Which value of Potency has been reported for COc1cc2c(cc1OC)[C@H](C)N(CC1C(=O)O[C@@H]3C[C@@]4(C)CCC[C@H](C)[C@@]45OC5[C@H]13)CC2 (stereo not given in full) in the records?
A. 35.5 µM (active)

Q. # get_value(readout='Potency', item= O=c1c(-c2cccs2)nc2cnc(N3CCNCC3)nc2n1CCc1ccccc1 )
A. inactive

Q. # input compound: COc1ccc(NC(=O)N2CCC3(CC2)CCN(S(=O)(=O)c2ccccc2)CC3)cc1 ; wanted: its Potency
A. inactive

Q. State the recorded Potency for this entry: CC(=O)N[C@H]1C(O[C@@H]2O[C@H](C[C@@H](O)[C@H]3O[C@@H](N4CCC(=O)NC4=O)[C@H](O)[C@@H]3O)[C@H](O)[C@H](O)[C@H]2NC(=O)/C=C/CCCCCCCCCCC(C)C)OC(CO)[C@@H](O)[C@@H]1O (stereo not given in full)
A. 35.5 µM (active)

Q. Need Potency, item COCCn1c(=O)c(CCc2ccccc2)nc2cnc(N3CCN(C)CC3)nc21
A. inactive

Q. Fill in: Potency of COc1cccc(-c2ccc3ncnc(N4CCN(C)CC4)c3c2)c1 is ___
A. 35.5 µM (active)

Q. Reported Potency for COCCn1c(=O)c(-c2cc(F)cc(F)c2)nc2cnc(N3CCNCC3)nc21 : what is it?
A. inactive

Q. Potency lookup needed for Cn1cc(-c2nc3cncnc3n(-c3ccccc3)c2=O)c2ccccc21 , thanks.
A. inactive

Q. Suppose we examine the compound Cc1cccc(CNc2ncnc3ccc(-c4ccccc4CN(C)C)cc23)c1 ; what Potency value has been reported?
A. 0.447 µM (active)

Q. # input compound: O=C(c1ccco1)N1CCC[C@@]2(CCN(c3ccncc3)C2)C1 ; wanted: its Potency
A. inactive

====

assay: qHTS for Hypoxia signaling pathway (HIF-1) antagonists against the NCATS CANVASS Library (AID 1347374); settings: HRE-bla ME-180 cells, HIF-1 beta-lactamase reporter, CoCl2; series mostly up to 38.3 µM; note: nearly all actives have a fitted effect of over 60% in size
Records with an inconclusive call do not appear. The source made the active and inactive calls. Calls follow the shape of the dose curve; as a rule, active = well fitted inhibition curve with a large enough effect; inconclusive = small, poorly fitted or top-dose-only effect; inactive = no such curve, though single readings can be large or run the other way. Bridge positions count the residues as written; N and C are the ends. Square brackets hold non-standard residues; d marks the D form. Side chains are listed from the residue outwards. Peptide text beside a SMILES is read from it. * marks the point of attachment. Phg(4-OMe) = COc1ccc([C@H](N)C(=O)O)cc1; d(aIle) = CC[C@H](C)[C@@H](N)C(=O)O; d(aThr) = C[C@@H](O)[C@@H](N)C(=O)O; NMeF = CN[C@@H](Cc1ccccc1)C(=O)O; Isobutyryl = CC(C)C(=O)*
Please reply with one of these outcomes: active, inactive

The examples below pair each entry with its known result.
INSERT INTO assay_data (compound, qualitative_label) VALUES
  ('C=C1CC[C@@H](Br)C(C)(C)[C@]12CC=C(C)C(=O)C2', 'inactive'),
  ('Cc1cc(C)c(O)c(C(=O)CC2CC(=O)NC(=O)C2)c1', 'active'),
  ('CC(=O)N[C@H](C)c1nc(/C=C/C=C/C(=O)CC2CC(=O)CC[C@]2(C)O)cs1 (stereo partly specified)', 'inactive'),
  ('CC[C@H](C)[C@H]1NC(=O)[C@@H](NC(=O)C(C)C)[C@@H](C)OC(=O)[C@H](COC(=O)CNC(C)=O)NC(=O)[C@@H]([C@@H](C)O)NC(=O)[C@H](Cc2ccccc2)N(C)C(=O)[C@H](c2ccc(OC)cc2)NC1=O (Isobutyryl-T[d(aIle)][Phg(4-OMe)][NMeF][d(aThr)]S([Gly-Ac]); ester 1-C)', 'inactive'),
  ('CN1CC[C@@]2([C@@]34CCN(C)[C@@H]3Nc3ccccc34)c3ccccc3N[C@@H]12', 'inactive');

Q. What was the test verdict on C/C(=C\[C@@H](C)CC/C=C/CC/C=C/C(=O)O)[C@@H](O)[C@H](C)C(=O)CCCC1CC(=O)NC(=O)C1 ?
A. inactive

Q. // outcome(item) with item = C/C1=C/[C@@H](C)[C@H](O)[C@@H](O)/C=C/CC/C=C/C(=O)O[C@@H]1[C@H](C)C(=O)CCCC1CC(=O)NC(=O)C1
A. inactive

Q. Record request — test call for C=C1CCC2C(C)(C(=O)O)CCC(CC/C(C)=C/C(=O)NC(CCC(N)=O)C(=O)O)[C@@]2(C)C1 (stereo partly specified)
A. inactive

Q. In this assay, the call recorded for CCCc1c2c([nH]c(=O)c1C)C(=O)c1[nH]c(=O)c(C)c(CCC)c1C2=O was what?
A. active

Q. What did the test return for C/C=C/c1cc2c(c(=O)o1)C(=O)[C@@H](O)[C@H](C)O2 ?
A. active

Q. Recorded test outcome, item O=C1CC(c2ccc(O)cc2)Oc2ccccc21 (stereo unspecified)
A. inactive

Q. // outcome(item) with item = COc1cc2ccc(=O)oc2c(O)c1O[C@@H]1O[C@H](CO)[C@@H](O)[C@H](O)[C@H]1O
A. inactive
